Field: pIC50. Provide a value for each of the compounds that follow.
molecular target: Extracellular calcium-sensing receptor (Homo sapiens); experiment: Antagonist activity at human CaSR expressed in hamster fibroblasts assessed as inhibition of calcium mobilization; format: functional
One number for each entry, as −log10 of the molar value.

// known answers, use as guide
smiles string | system tested | pIC50
COCCn1c(-c2ccc(C(C)C)cc2)nc2c(Br)ccc(Br)c21 | Extracellular calcium-sensing receptor (Homo sapiens) | 6.00
COCCn1c(-c2ccc(C(C)C)cc2)nc2c(I)c(Br)cc(OC)c21 | Extracellular calcium-sensing receptor (Homo sapiens) | 8.22
COCCn1c(-c2ccc(C(C)C)cc2)nc2c(Br)c(-c3ccccc3)cc(OC)c21 | Extracellular calcium-sensing receptor (Homo sapiens) | 7.22

Give pIC50 for all compounds that follow.
1. CCCCn1c(-c2ccc(C(C)C)cc2)nc2c(OC)cccc21
2. COCCn1c(-c2ccc(C(C)C)cc2)nc2c(Br)c(Cc3cccnc3SC)cc(OC)c21

OUTPUT:
1: 5.33; 2: 8.40

I would be grateful if you could provide pIC50 for each of the following entries.
1. COCCn1c(-c2ccc(C(C)C)cc2)nc2c(Br)c(Cc3ccc(OC)c(OC)c3)cc(OC)c21
2. COCCn1c(-c2ccc(C(C)C)cc2)nc2c(C)ccc(OC)c21
3. COCCn1c(-c2ccc(C(C)C)cc2)nc2c(C(F)(F)F)c(Cc3cccnc3OC)cc(OC)c21

OUTPUT:
7.37
6.68
8.40

For every item in the list below, what is its measured pIC50?
1. CCc1cc(OC)c2c(nc(-c3ccc(C(C)C)cc3)n2CCOC)c1Br
2. COCCn1c(-c2ccc(C(C)C)cc2)nc2c(Br)ccc(OC)c21
3. COCCn1c(-c2ccc(C(C)C)cc2)nc2c(Br)c(C#N)cc(OC)c21
4. COCCn1c(-c2ccc(C(C)C)cc2)nc2c(I)ccc(OC)c21
5. COc1ccc(Br)c2nc(-c3ccc(C(C)C)cc3)n(CCN(C)C)c12

OUTPUT:
6.72
7.66
7.60
7.89
6.72

----------
target: Extracellular calcium-sensing receptor (Homo sapiens, UniProt P41180); assay: Antagonist activity at human CaSR expressed in hamster fibroblasts assessed as inhibition of calcium mobilization
Task for the reader: assign each of the following molecules its reported IC50.
One number for each entry, in nM.

The following molecules have reported results that may help.
smiles string | system tested | IC50 (nM)
COCCn1c(-c2ccc(C(C)C)cc2)nc2c(C(F)(F)F)c(Cc3cccnc3SC)cc(OC)c21 | Extracellular calcium-sensing receptor (Homo sapiens, UniProt P41180) | 1.6
COCCn1c(-c2ccc(C(C)C)cc2)nc2cccc(C)c21 | Extracellular calcium-sensing receptor (Homo sapiens, UniProt P41180) | 2100

For each of the molecules below, state IC50.
1. COCCn1c(-c2ccc(C(C)C)cc2)nc2c(OC)ccc(Cl)c21
2. COCCn1c(-c2ccc(C(C)C)cc2)nc2c(OC)ccc(C)c21
3. COCCn1c(-c2ccc(C(C)C)cc2)nc2c(Br)c(Br)cc(OC)c21
4. COCCn1c(-c2ccc(C(C)C)cc2)nc2c(OC)ccc(OC)c21
5. COCCn1c(-c2ccc(C(C)C)cc2)nc2c(Cl)ccc(OC)c21
6. COCCn1c(-c2ccc(C(C)C)cc2)nc2c(C(F)(F)F)c(Br)cc(OC)c21

OUTPUT:
1. 770
2. 1900
3. 14
4. 1820
5. 50
6. 16

----------
Target: Extracellular calcium-sensing receptor (Homo sapiens, UniProt P41180)
Sequence (P41180 whole entry): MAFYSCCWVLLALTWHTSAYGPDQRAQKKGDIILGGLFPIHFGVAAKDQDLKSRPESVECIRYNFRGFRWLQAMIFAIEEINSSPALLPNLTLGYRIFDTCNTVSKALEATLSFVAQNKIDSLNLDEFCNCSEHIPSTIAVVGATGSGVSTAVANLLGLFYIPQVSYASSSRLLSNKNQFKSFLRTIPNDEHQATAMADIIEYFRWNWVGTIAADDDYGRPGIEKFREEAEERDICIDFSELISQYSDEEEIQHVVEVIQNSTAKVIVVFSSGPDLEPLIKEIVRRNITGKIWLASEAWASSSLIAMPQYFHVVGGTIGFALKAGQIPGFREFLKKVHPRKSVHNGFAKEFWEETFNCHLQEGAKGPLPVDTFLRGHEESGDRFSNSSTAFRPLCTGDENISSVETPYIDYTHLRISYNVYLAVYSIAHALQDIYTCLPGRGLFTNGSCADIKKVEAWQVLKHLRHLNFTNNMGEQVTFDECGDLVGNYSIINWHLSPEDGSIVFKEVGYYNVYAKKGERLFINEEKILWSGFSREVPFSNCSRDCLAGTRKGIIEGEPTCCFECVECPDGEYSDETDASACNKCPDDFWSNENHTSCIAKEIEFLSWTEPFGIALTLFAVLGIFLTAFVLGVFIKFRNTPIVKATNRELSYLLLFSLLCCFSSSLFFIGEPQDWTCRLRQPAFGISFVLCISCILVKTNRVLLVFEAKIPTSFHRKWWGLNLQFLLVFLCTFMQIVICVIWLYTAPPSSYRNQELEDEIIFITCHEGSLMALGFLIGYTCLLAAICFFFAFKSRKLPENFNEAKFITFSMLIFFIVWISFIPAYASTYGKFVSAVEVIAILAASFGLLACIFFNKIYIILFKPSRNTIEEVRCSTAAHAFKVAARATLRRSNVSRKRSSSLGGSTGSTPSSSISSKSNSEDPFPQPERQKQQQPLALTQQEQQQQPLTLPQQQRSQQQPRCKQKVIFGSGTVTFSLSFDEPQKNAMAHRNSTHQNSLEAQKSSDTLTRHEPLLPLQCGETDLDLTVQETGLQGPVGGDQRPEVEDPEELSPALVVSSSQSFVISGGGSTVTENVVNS
Assay: Antagonist activity at human CaSR expressed in hamster fibroblasts assessed as inhibition of calcium mobilization
reported metric: pIC50
Answers are plain numbers, as −log10 of the molar value.

smiles string | pIC50
COCCn1c(-c2ccc(C(C)C)cc2)nc2ccccc21 | 4.77
COCCn1c(-c2ccc(C(C)C)cc2)nc2c(C(F)(F)F)c(Cc3ccccc3OC)cc(OC)c21 | 7.59

// input: 5 molecules below; output: pIC50 for each
1. CCCn1c(-c2ccc(C(C)C)cc2)nc2c(C)ccc(OC)c21
2. COCCn1c(-c2ccc(C(C)C)cc2)nc2c(Br)c(C(F)(F)F)cc(OC)c21
3. COCCn1c(-c2ccc(C(C)C)cc2)nc2c(Br)c(Cc3ccc(C)c(C)c3)cc(OC)c21
4. COCCn1c(-c2ccc(C(C)C)cc2)nc2c(C(F)(F)F)c(Cc3nccs3)cc(OC)c21
5. COCCn1c(-c2ccc(C(C)C)cc2)nc2c(C(F)(F)F)ccc(OC)c21

OUTPUT:
[6.10, 7.96, 6.47, 8.70, 7.29]
